System: NCI-H1341 complex spheroids, percent test/control
Assay: Anticancer human tumor NCI-H1341 cell line growth inhibition [AhR]; active = viability on the fitted dose curve at most 10% of control; inactive = the rest;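 note: spheroids exposed to agents for seven days before readout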
Conditions: second compound 3.16 µM; first compound 3.16 µM
Outcomes: YES = active, NO = inactive

CC(C)c1c(-c2ccccc2)nc2c(C#N)c[nH]n2c1=O + Cc1cncc(-c2nc(NCCc3c[nH]c4ccccc34)c3ncn(C(C)C)c3n2)c1 ... NO
O=C(c1cc(Cc2n[nH]c(=O)c3ccccc23)ccc1F)N1CCN(C(=O)C2CC2)CC1 + Cc1ccccc1N=Nc1ccc(NC(=O)c2ccnn2C)c(C)c1 ... NO
NS(=O)(=O)OCC1CC(n2ccc3c(NC4CCc5ccccc54)ncnc32)CC1O (stereo unspecified) + Cc1ccccc1N=Nc1ccc(NC(=O)c2ccnn2C)c(C)c1 ... YES
CC1COCCN1c1cc(C2(S(C)(=N)=O)CC2)nc(-c2ccnc3[nH]ccc23)n1 (stereo unspecified) + Cc1ccccc1N=Nc1ccc(NC(=O)c2ccnn2C)c(C)c1 ... NO
Nc1ccccc1NC(=O)c1ccc(CNC(=O)OCc2cccnc2)cc1 + CC(CO)NC(=O)c1cc(-c2ccc(Cl)cc2)nn(-c2cnn(C)c2)c1=O ... YES
COc1cc(Nc2ncc3c(n2)-c2ccc(Cl)cc2C(c2c(F)cccc2OC)=NC3)ccc1C(=O)O + Cc1ccccc1N=Nc1ccc(NC(=O)c2ccnn2C)c(C)c1 ... NO

* * *

Tested on: NCI-H1341 complex spheroids, percent test/control
Assay: Anticancer human tumor NCI-H1341 cell line growth inhibition [AhR];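 note: spheroids exposed to agents for seven days before readout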
Details: second compound 0.316 µM; first compound 3.16 µM; stronger effect = lower value
Threshold 30%: viability, T/C strictly smaller gives T, otherwise F.

CC(C)c1c(-c2ccccc2)nc2c(C#N)c[nH]n2c1=O + Cc1ccccc1N=Nc1ccc(NC(=O)c2ccnn2C)c(C)c1 ... F
CC1COCCN1c1cc(C2(S(C)(=N)=O)CC2)nc(-c2ccnc3[nH]ccc23)n1 (stereo unspecified) + Cc1ccccc1N=Nc1ccc(NC(=O)c2ccnn2C)c(C)c1 ... F
Nc1ccn(C2OC(CO)C(O)C2(F)F)c(=O)n1 (stereo unspecified) + Cc1cncc(-c2nc(NCCc3c[nH]c4ccccc34)c3ncn(C(C)C)c3n2)c1 ... T
CC(C)c1c(-c2ccccc2)nc2c(C#N)c[nH]n2c1=O + Cc1cncc(-c2nc(NCCc3c[nH]c4ccccc34)c3ncn(C(C)C)c3n2)c1 ... F
COc1cc(C2c3cc4c(cc3C(OC3OC5COC(C)OC5C(O)C3O)C3COC(=O)C23)OCO4)cc(OC)c1O (stereo unspecified) + Cc1cncc(-c2nc(NCCc3c[nH]c4ccccc34)c3ncn(C(C)C)c3n2)c1 ... F
COc1ccc([C@@H](O)c2cc(-c3ncnc4cc(N5CCOCC5)ccc34)c(F)cc2Cl)nn1 + Cc1ccccc1N=Nc1ccc(NC(=O)c2ccnn2C)c(C)c1 ... T
CC1COCCN1c1cc(C2(S(C)(=N)=O)CC2)nc(-c2ccnc3[nH]ccc23)n1 (stereo unspecified) + Cc1cncc(-c2nc(NCCc3c[nH]c4ccccc34)c3ncn(C(C)C)c3n2)c1 ... F
CC1(C)CCC(CN2CCN(c3ccc(C(=O)NS(=O)(=O)c4ccc(NCC5CCOCC5)c([N+](=O)[O-])c4)c(Oc4cnc5[nH]ccc5c4)c3)CC2)=C(c2ccc(Cl)cc2)C1 + Cc1cncc(-c2nc(NCCc3c[nH]c4ccccc34)c3ncn(C(C)C)c3n2)c1 ... F
COc1cc(Nc2ncc3c(n2)-c2ccc(Cl)cc2C(c2c(F)cccc2OC)=NC3)ccc1C(=O)O + Cc1cncc(-c2nc(NCCc3c[nH]c4ccccc34)c3ncn(C(C)C)c3n2)c1 ... T
COc1ccc([C@@H](O)c2cc(-c3ncnc4cc(N5CCOCC5)ccc34)c(F)cc2Cl)nn1 + CC(CO)NC(=O)c1cc(-c2ccc(Cl)cc2)nn(-c2cnn(C)c2)c1=O ... F
NS(=O)(=O)OCC1CC(n2ccc3c(NC4CCc5ccccc54)ncnc32)CC1O (stereo unspecified) + Cc1ccccc1N=Nc1ccc(NC(=O)c2ccnn2C)c(C)c1 ... T
Nc1ccccc1NC(=O)c1ccc(CNC(=O)OCc2cccnc2)cc1 + Cc1ccccc1N=Nc1ccc(NC(=O)c2ccnn2C)c(C)c1 ... T
O=C(c1cc(Cc2n[nH]c(=O)c3ccccc23)ccc1F)N1CCN(C(=O)C2CC2)CC1 + Cc1ccccc1N=Nc1ccc(NC(=O)c2ccnn2C)c(C)c1 ... F
Nc1ccn(C2OC(CO)C(O)C2(F)F)c(=O)n1 (stereo unspecified) + CC(CO)NC(=O)c1cc(-c2ccc(Cl)cc2)nn(-c2cnn(C)c2)c1=O ... T
COc1cccc2c1C(=O)c1c(O)c3c(c(O)c1C2=O)CC(O)(C(=O)CO)CC3OC1CC(N)C(O)C(C)O1 (stereo unspecified) + CC(CO)NC(=O)c1cc(-c2ccc(Cl)cc2)nn(-c2cnn(C)c2)c1=O ... T
Nc1ccn(C2OC(CO)C(O)C2(F)F)c(=O)n1 (stereo unspecified) + Cc1ccccc1N=Nc1ccc(NC(=O)c2ccnn2C)c(C)c1 ... F
COc1ccc([C@@H](O)c2cc(-c3ncnc4cc(N5CCOCC5)ccc34)c(F)cc2Cl)nn1 + Cc1cncc(-c2nc(NCCc3c[nH]c4ccccc34)c3ncn(C(C)C)c3n2)c1 ... T
CC1(C)CCC(CN2CCN(c3ccc(C(=O)NS(=O)(=O)c4ccc(NCC5CCOCC5)c([N+](=O)[O-])c4)c(Oc4cnc5[nH]ccc5c4)c3)CC2)=C(c2ccc(Cl)cc2)C1 + Cc1ccccc1N=Nc1ccc(NC(=O)c2ccnn2C)c(C)c1 ... F
COc1cc(C2c3cc4c(cc3C(OC3OC5COC(C)OC5C(O)C3O)C3COC(=O)C23)OCO4)cc(OC)c1O (stereo unspecified) + Cc1ccccc1N=Nc1ccc(NC(=O)c2ccnn2C)c(C)c1 ... F

* * *

Test system: NCI-H1341 complex spheroids, percent test/control
Assay: Anticancer human tumor NCI-H1341 cell line growth inhibition [AhR];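 note: spheroids exposed to agents for seven days before readout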
Settings: second compound 0.316 µM; first compound 0.000316 µM; stronger effect = lower value
Reported viability, T/C values for a set of compounds
measurement_kind: viability, T/C (%)

Cn1ncnc1C1c2n[nH]c(=O)c3cc(F)cc(c23)NC1c1ccc(F)cc1 (stereo not drawn) + Cc1cncc(-c2nc(NCCc3c[nH]c4ccccc34)c3ncn(C(C)C)c3n2)c1 ... 87
CC[C@@]1(O)C(=O)OCc2c1cc1n(c2=O)Cc2cc3c(CN(C)C)c(O)ccc3nc2-1 + Cc1ccccc1N=Nc1ccc(NC(=O)c2ccnn2C)c(C)c1 ... 99.5
Cn1ncnc1C1c2n[nH]c(=O)c3cc(F)cc(c23)NC1c1ccc(F)cc1 (stereo not drawn) + CC(CO)NC(=O)c1cc(-c2ccc(Cl)cc2)nn(-c2cnn(C)c2)c1=O ... 85

* * *

System: NCI-H1341 complex spheroids, percent test/control
Experiment: Anticancer human tumor NCI-H1341 cell line growth inhibition [AhR];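 note: spheroids exposed to agents for seven days before readout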
Details: second compound 3.16 µM; first compound 0.0949 µM; stronger effect = lower value
Reported viability, T/C values for a set of compounds
measurement_kind: viability, T/C (%)

CCc1c2c(nc3ccc(O)cc13)-c1cc3c(c(=O)n1C2)COC(=O)[C@]3(O)CC + Cc1ccccc1N=Nc1ccc(NC(=O)c2ccnn2C)c(C)c1 ... 29.7
O=C(C=Cn1cnc(-c2cc(C(F)(F)F)cc(C(F)(F)F)c2)n1)NNc1cnccn1 + Cc1ccccc1N=Nc1ccc(NC(=O)c2ccnn2C)c(C)c1 ... 30.6
O=C(C=Cn1cnc(-c2cc(C(F)(F)F)cc(C(F)(F)F)c2)n1)NNc1cnccn1 + Cc1cncc(-c2nc(NCCc3c[nH]c4ccccc34)c3ncn(C(C)C)c3n2)c1 ... 30.8

* * *

System: NCI-H1341 complex spheroids, percent test/control
Assay: Anticancer human tumor NCI-H1341 cell line growth inhibition [AhR];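 note: spheroids exposed to agents for seven days before readout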
Conditions: curve of first compound; second compound 10 µM
measurement_kind: IC50

NS(=O)(=O)OCC1CC(n2ccc3c(NC4CCc5ccccc54)ncnc32)CC1O (stereo not given) + CC(CO)NC(=O)c1cc(-c2ccc(Cl)cc2)nn(-c2cnn(C)c2)c1=O ... < 31.6 nM
CCN(c1cc(-c2ccc(CN3CCOCC3)cc2)cc(C(=O)NCc2c(C)cc(C)[nH]c2=O)c1C)C1CCOCC1 + CC(CO)NC(=O)c1cc(-c2ccc(Cl)cc2)nn(-c2cnn(C)c2)c1=O ... > 3000 nM
CC1COCCN1c1cc(C2(S(C)(=N)=O)CC2)nc(-c2ccnc3[nH]ccc23)n1 (stereo not given) + Cc1cncc(-c2nc(NCCc3c[nH]c4ccccc34)c3ncn(C(C)C)c3n2)c1 ... < 31.6 nM
Nc1ncn(C2CC(O)C(CO)O2)c(=O)n1 (stereo not given) + Cc1cncc(-c2nc(NCCc3c[nH]c4ccccc34)c3ncn(C(C)C)c3n2)c1 ... < 3.16 nM
CC1(C)CCC(CN2CCN(c3ccc(C(=O)NS(=O)(=O)c4ccc(NCC5CCOCC5)c([N+](=O)[O-])c4)c(Oc4cnc5[nH]ccc5c4)c3)CC2)=C(c2ccc(Cl)cc2)C1 + Cc1cncc(-c2nc(NCCc3c[nH]c4ccccc34)c3ncn(C(C)C)c3n2)c1 ... < 31.6 nM
